# SYSTEM NAME: T1, soluble dimeric FcγRIIB (extracellular domain fused to hinge-CH2-CH3 of human IgG2) (human, UniProt P31994 43-217)
# T1 construct: extracellular domain; also called FcRIIB; FcRIIB-Fc; not shown: human IgG2 hinge-CH2-CH3
# T1 sequence (looked up): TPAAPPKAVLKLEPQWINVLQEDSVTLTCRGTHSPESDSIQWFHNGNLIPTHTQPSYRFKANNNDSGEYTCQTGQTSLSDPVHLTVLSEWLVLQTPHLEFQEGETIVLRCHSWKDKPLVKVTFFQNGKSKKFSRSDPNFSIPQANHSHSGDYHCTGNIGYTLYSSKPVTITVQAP
# EXPERIMENT DESCRIPTION: ELISA
MEASURED PARAMETER: Binding to FcγRIIB (ELISA) (fold increase)
Report the figure in fold increase without appending any unit label.

Noted for IgG1 Fc mutant K326I, S408N, P396L (antibody) heavy: ASTKGPSVFPLAPSSKSTSGGTAALGCLVKDYFPEPVTVSWNSGALTSGVHTFPAVLQSSGLYSLSSVVTVPSSSLGTQTYICNVNHKPSNTKVDKKVEPKSCDKTHTCPPCPAPELLGGPSVFLFPPKPKDTLMISRTPEVTCVVVDVSHEDPEVKFNWYVDGVEVHNAKTKPREEQYNSTYRVVSVLTVLHQDWLNGKEYKCKVSNIALPAPIEKTISKAKGQPREPQVYTLPPSRDELTKNQVSLTCLVKGFYPSDIAVEWESNGQPENNYKTTPLVLDSDGSFFLYNKLTVDKSRWQQGNVFSCSVMHEALHNHYTQKSLSLSPGK : its Binding to FcγRIIB (ELISA) reads 9.3

Hello, the source for this data is patent US20090098124A1, in case you need it.
